- test.method.notes: Angle of repose (flowability)
- Format: physicochemical
- recorded.conditions: Trial 2; sample passed through 12 mesh screen, funnel with 1 cm aperture
measured.property: Repose Angle, Trial 2

compound="NC(=O)c1ncn([C@@H]2O[C@H](CO)[C@@H](O)[C@H]2O)n1 [ribavirin]" reported_value="42 °"

* * *

- test.method.notes: Angle of repose (flowability)
- Format: physicochemical
- recorded.conditions: Trial 1; sample passed through 12 mesh screen, funnel with 1 cm aperture
- Description: Another measure of flowability can be made by determining a material's angle of repose. The angle of repose is a standard test in the pharmaceutical industry to establish the relative flowability of a solid pharmaceutical formulation. […] Angle of repose data was collected for ribavirin composition made in accordance with Examples 1 and 3 and compared to bulk ribavirin and a commercial ribavirin product. […] The funnel height was then measured, as well as the diameter (width) of the sample. […]
measured.property: Repose Angle, Trial 1 (°)

sample_smiles=NC(=O)c1ncn([C@@H]2O[C@H](CO)[C@@H](O)[C@H]2O)n1 reported_value=44
